The following molecules are listed with their measured EC50 values.
- System: HIV-1 (IIIB)
- protocol_text: Antiviral assay in MT-4 cells
- Type: cell-based
- measurement_conditions: HIV-1 IIIB infected MT-4 cells, 5 days, Cell Titer Glo; read-out: MT4 EC50
Write it as a number; the unit nM goes unstated.

Which measured EC50 value corresponds to C[C@H]1/C=C\C[C@H](C)N2CN1C(=O)c1c(O)c(=O)c(C(=O)NCc3c(F)cc(F)cc3F)cn12 [Example C20] ? 3.5

Please answer likewise for C[C@@H]1C=C[C@@H](C)N2CN1C(=O)c1c(O)c(=O)c(C(=O)NCc3ccc(F)cc3F)cn12 1.5

Follow-up item: C[C@@H]1C/C=C\CN2CN1n1cc(C(=O)NCc3ccc(F)cc3F)c(=O)c(O)c1C2=O [Example C10] 1.8

Another: O=C(NCc1c(F)cc(F)cc1F)c1cn2c(c(O)c1=O)C(=O)N1CCCCN2C1 [Example C109] 1.2

Same for C[C@@H]1CC[C@H](CF)N2CN1n1cc(C(=O)NCc3ccc(F)cc3F)c(=O)c(O)c1C2=O [Example C49b] 1.9

* * *

- Test system: pLai RLuc reporter virus
- protocol_text: HIV MT-4 serum shift antiviral reporter assay
- Assay type: cell-based
- measurement_conditions: Human immunodeficiency virus 1, 72 h, read-out: RLUC 50% HS (nM), HS/CCM: 50% human serum, 72 h, Renilla Glo
assay_endpoint: EC50 (nM)
Give the value, in units of nM, as a plain number.

Using the record for C[C@H]1CC[C@@H](CF)N2CN1n1cc(C(=O)NCc3ccc(F)cc3F)c(=O)c(O)c1C2=O [Example C96] , report its EC50. 958

Next:
Fill in: EC50 of C[C@H]1CCC2(CCOC2)N2CN1C(=O)c1c(O)c(=O)c(C(=O)NCc3c(F)cc(F)cc3F)cn12 (stereo partly shown) [Example C86] is ___ 14.1

One more molecule: COC[C@@H]1C=C[C@H](C)N2CN1n1cc(C(=O)NCc3ccc(F)cc3F)c(=O)c(O)c1C2=O [Example C82] 75

Also, C[C@@H]1C=C(F)[C@H](C)N2CN1n1cc(C(=O)NCc3c(F)cc(F)cc3F)c(=O)c(O)c1C2=O [Example C55] please. 515

Cool, now CC[C@H]1C=C[C@H](C)N2CN1n1cc(C(=O)NCc3c(F)cc(F)cc3F)c(=O)c(O)c1C2=O [Example C106] 107

Same question, CC[C@@H]1C=C[C@H](C)N2CN1n1cc(C(=O)NCc3c(F)cc(F)cc3F)c(=O)c(O)c1C2=O [Example C72] this time 251

Param item: C[C@@H]1C[C@@H](CF)[C@H](C)N2CN1n1cc(C(=O)NCc3c(F)cc(F)cc3F)c(=O)c(O)c1C2=O [Example C57] 11.6

* * *

The entries below come with measured CC50 at 5 days values attached.
- protocol_text: Cytotoxicity assay in MT-4 cells
- Type: cell-based
- measurement_conditions: human, CC50 (nM)
Kindly provide the numeric value in nM only, without the unit symbol.

Recorded CC50 at 5 days for C[C@H]1CCC2(CCOC2)N2CN1C(=O)c1c(O)c(=O)c(C(=O)NCc3c(F)cc(F)cc3F)cn12 (stereo partly shown) , please? 26000

Also need C[C@H]1C=CC2(COC(C)(C)C2)N2CN1C(=O)c1c(O)c(=O)c(C(=O)NCc3c(F)cc(F)cc3F)cn12 (stereo partly shown) , thanks. 25300

Also C[C@H]1CCC2(CCC2)N2CN1C(=O)c1c(O)c(=O)c(C(=O)NCc3c(F)cc(F)cc3F)cn12 , if possible. 13600

Let us examine a further case.
Please give the measured CC50 at 5 days for this compound: C[C@H]1C=CC2(CCC2)N2CN1C(=O)c1c(O)c(=O)c(C(=O)NCc3c(F)cc(F)cc3F)cn12 19700
